system: NF-κB pathway, THP1-Dual™ cells; assay: STING reporter assay in THP1-Dual cells, NF-κB pathway (SEAP, QUANTI-Blue); type: cell-based, human; settings: Homo sapiens, THP1-Dual, 20 h, THP1-Dual cells, 10% human plasma, 20 hours; SEAP; 100% activation = 100 μM cGAMP; read-out: NFkB (EC50 μM)
endpoint-label: EC50 (µM)

Take a look at these entries with their results.
INSERT INTO results (smiles_representation, unit, recorded_value) VALUES
  ('O=C(NCc1cc2cc(Cl)cc(C(=O)OCC(F)(F)F)c2o1)c1cnccn1', 'µM', 3.9),
  ('C[C@@H](OC(=O)c1cc(F)cc2c(Cl)c(CNC(=O)c3cnn4cccnc34)oc12)C(F)(F)F', 'µM', 0.36),
  ('COC(=O)c1cc(C)cc2cc(Cn3ccc4ccncc4c3=O)oc12', 'µM', 3.6),
  ('COC(=O)c1cccc2cc(CNC(=O)c3cncnc3)oc12', 'µM', 39),
  ('CSC(=O)c1cc(F)cc2cc(CNC(=O)c3cnn4cccnc34)oc12', 'µM', 1.1),
  ('COC(=O)c1ccc(C)c2cc(Cn3ccc4ccncc4c3=O)oc12', 'µM', 3.4),
  ('CCOC(=O)c1cccc2cc(CN3Cc4ccncc4C3=O)oc12', 'µM', 65),
  ('COC(=O)c1cc(Cl)cc2cc(CNC(=O)c3cncn(C)c3=O)oc12', 'µM', 3.1);

[P] CSC(=O)c1cc(F)cc2cc([C@H](C)NC(=O)c3cnn4cccnc34)oc12
[Q] O=C(O)c1cc(Cl)cc2c(Cl)c(CNC(=O)c3cnn4cccnc34)oc12
[R] C[C@H](NC(=O)c1cnn2cccnc12)c1cc2cc(Cl)cc(C(=O)OC3CC(F)(F)C3)c2o1
Prompt line: Ordering criterion: EC50; begin with the maximum. Kindly provide the labels arranged according to the requested ordering.
Response line: Q, R, P
(Q: 91 µM, R: 6.6 µM, P: 1.5 µM)

[1] COC(=O)c1cc(Cl)cc2cc(CNC(=O)c3cncc4cccnc34)oc12
[2] C=Cc1c(CNC(=O)c2cnn3cccnc23)oc2c(C(=O)OC)cc(C)cc12
Prompt line: // which entry has the larger EC50 value, 1 or 2 ? Response format: the label of the selected entry.
Response line: 2

[1] O=C(NCc1cc2cc(F)cc(C(=O)OCC(F)(F)F)c2o1)c1cnccn1
[2] Cc1cc(C(=O)OC(C)C)c2oc(CNC(=O)c3cnn4cccnc34)cc2c1
Prompt line: // which entry has the larger EC50 value, 1 or 2 ? Response format: the label of the selected entry.
Response line: 1

[P] C[C@H](NC(=O)c1cnn2cccnc12)c1oc2c(C(=O)OCC(F)(F)F)cc(Cl)cc2c1Cl
[Q] COC(=O)c1cc(C)cc2cc(CNC(=O)c3cnn4cccnc34)oc12
Prompt line: Smaller EC50 value? Options are P and Q Response format: the label of the selected entry.
Response line: Q
(Q: 0.19 µM, P: 3.2 µM)
